Sourced from PubChem BioAssay (NCATS)

Test system: AS120
TEST PROTOCOL: qHTS profiling for inhibitors of Plasmodium falciparum proliferation (AID 504749); note: nearly all actives have a fitted effect of over 60% in size
CONDITION NOTES: P. falciparum in erythrocytes, SYBR Green DNA, 72 h; series mostly up to 28.7 µM
Method: NIH National Institute of Allergy and Infectious Diseases [NIAID] NIH Chemical Genomics Center [NCGC] […] Because mature erythrocytes lack DNA, only Plasmodium-derived DNA is detected. NCGC Assay Protocol Summary: The SYBR Green viability assay was adapted from a method described previously (Plouffe et al., 2008). […] The following morning, fluorescence intensity at 485(14) nm excitation and 535(25) nm emission wavelengths was measured on an EnVision (Perkin Elmer) plate reader. […]
Records with an inconclusive call do not appear. Calls of active or inactive are those of the source. Calls come from the whole dose curve; as a rule, active = well fitted inhibition curve with a large enough effect; inconclusive = small, poorly fitted or top-dose-only effect; inactive = flat fitted curve, though single readings scatter.
Could you please pick one outcome from this set? Y for active, N for inactive

Worked examples, 2 molecules total:
MOLECULE	GROUP
CC[C@@H](C)C(N)C(=O)O (some centres undefined)	N
CCC(C(=O)C(C)C(O)C(C)CCc1ccc(C)c(O)c1C(=O)O)C1OC(CC)(C2CC[C@@](O)(CC)C(C)O2)CC1C (some centres undefined)	Y

input: Hi, sorry to bother you, what did the test record for O=C(O)C(O)c1ccccc1 (centres undefined) ?
output: N

input: Hi, sorry to bother you, what did the test record for "C/C=C\C[C@H](C)[C@H](O)[C@H]1C(=O)N[C@@H](CC)C(=O)N(C)CC(=O)N(C)[C@@H](CC(C)C)C(=O)N[C@@H](C(C)C)C(=O)N(C)[C@@H](CC(C)C)C(=O)N[C@@H](C)C(=O)N[C@@H](C)C(=O)N(C)[C@@H](CC(C)C)C(=O)N(C)[C@@H](CC(C)C)C(=O)N(C)[C@@H](C(C)C)C(=O)N1C" ?
output: Y

----------
TEST PROTOCOL: AP1 Signaling Pathway (AID 357);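 note: ME-180 reporter cells stimulated with EGF at its EC50 level; % is set by controls: 0 for no effect and ±100 for the full control effect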
CONDITION NOTES: ME-180 (cervical carcinoma) AP-1-bla reporter, EGF-induced, beta-lactamase ratio, 5 h; at 17.2 µM (top of the series) unless noted
Results filed as inconclusive are left out.
PROPERTY NAME: activity change, negative = inhibition (%)
Give just the numeric value; % need not be written.

Here are 3 molecules together with their reported answers.
MOLECULE	DATA VALUE
O=C(O)C1CSCN1S(=O)(=O)c1cccc2nsnc12 (configuration not stated)	1.17
COC(=O)CSc1nc(N)nc(C)c1Br	5.47
CN1CCN(c2nc(C(N)=O)cc(-c3ccccc3)n2)CC1	-1.1

# input for lookup
input: Give reported activity change, negative = inhibition value for "COc1ccc(CNC(=O)[C@H](C)NC(=O)C2CCN(S(=O)(=O)c3ccc(C)cc3)CC2)cc1"
output: 0.123

----------
System: CP211
TEST PROTOCOL: qHTS profiling for inhibitors of Plasmodium falciparum proliferation (AID 504749); note: nearly all actives have a fitted effect of over 60% in size
CONDITION NOTES: P. falciparum in erythrocytes, SYBR Green DNA, 72 h; series mostly up to 28.7 µM
Records with an inconclusive call do not appear. The source made the active and inactive calls. Calls follow the shape of the dose curve; as a rule, active = well fitted inhibition curve with a large enough effect; inconclusive = small, poorly fitted or top-dose-only effect; inactive = flat fitted curve, though single readings scatter.
Could you please pick one outcome from this set? active, inactive

COMPOUND	GROUP
O=c1[nH]c(=O)n(C2C[C@H](O)[C@@H](CO)O2)cc1C(F)(F)F (some centres undefined)	inactive
CC(=O)OCC(=O)[C@@]1(O)CCC2C3C[C@H](C)C4=CC(=O)C=CC4(C)C3C(O)CC21C (some centres undefined)	inactive
CN1[C@H]2CC(OC(=O)[C@H](CO)c3ccccc3)C[C@H]1[C@H]1O[C@H]12 (some centres undefined)	inactive

input: Hi, sorry to bother you, what did the test record for "CC1=C[C@@H](O)CC(C)(C)[C@@H]1/C=C/C(C)=C/C=C/C(C)=C/C=C/C=C(C)/C=C/C=C(C)/C=C/C1=C(C)C[C@H](O)CC1(C)C" ?
output: inactive

input: Hi, sorry to bother you, what did the test record for COC(c1ccccc1)(c1ccccc1)C(Oc1nc(C)cc(C)n1)C(=O)O (centres undefined) ?
output: inactive

input: Hi, sorry to bother you, what did the test record for OCC1O[C@H](O[C@H]2C(O)C(O)C(O)O[C@@H]2CO)C(O)C(O)C1O (some centres undefined) ?
output: inactive

input: Hi, sorry to bother you, what did the test record for "C=C(NCc1ccccc1)c1ccccc1O" ?
output: inactive

input: Hi, sorry to bother you, what did the test record for C[N+]12CCCC[C@@H]1CCC(=C(c1cccs1)c1cccs1)C2 (some centres undefined) ?
output: active

input: Hi, sorry to bother you, what did the test record for CC[C@@]1(O)CC2CN(CCc3c([nH]c4ccccc34)[C@](C(=O)OC)(c3cc4c(cc3OC)N(C)C3[C@@](O)(C(=O)OC)C(OC(C)=O)[C@]5(CC)C=CCN6CC[C@@]43C65)C2)C1 (some centres undefined) ?
output: active

input: Hi, sorry to bother you, what did the test record for CC1(C)CC1C(=O)N/C(=C/CCCCSCC(N)C(=O)O)C(=O)O (centres undefined) ?
output: inactive

input: Hi, sorry to bother you, what did the test record for O=C(O)C(O)c1ccccc1 (centres undefined) ?
output: inactive
